# Test system: RARa homodimer (NR concentration 270 nM)
# procedure-text: PBM binding z-score (relative to random genomic background probes); higher = stronger binding; sequences stand for … in GC…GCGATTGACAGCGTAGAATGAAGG
Labels assigned by PBM binding z-score range: bottom range: < 0.08; center range: ≥ 0.08 and < 2; top range: ≥ 2

Worked cases, answers included:
| sequence-data | target-of-assay | assigned-class |
| --- | --- | --- |
| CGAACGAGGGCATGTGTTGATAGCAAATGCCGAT | RARa homodimer (NR concentration 270 nM) | center range |
| TAGCCTAGGTCATCGGCCAGTATACCACGCGAAC | RARa homodimer (NR concentration 270 nM) | bottom range |
| CAAACTAGGTCACAGAGGTCAAAATCCGTGCGTA | RARa homodimer (NR concentration 270 nM) | top range |
| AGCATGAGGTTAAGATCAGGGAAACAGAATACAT | RARa homodimer (NR concentration 270 nM) | center range |

Could you now consider this next sequence?
Record TCTGCTAGGTCAGTTGTTCAGCTAACGAGCTGCC — which class?
bottom range

====

# System: PPARg:RXRa IVT, anti-PPARg (NR concentration 270 nM, RXRa partner concentration 90 nM)
# procedure-text: PBM binding z-score (relative to random genomic background probes); higher = stronger binding; sequences stand for … in GC…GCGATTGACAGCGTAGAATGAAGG
Decision: PBM binding z-score compared against 3; not below it gives t, below it gives f.

Worked cases, answers included:
| sequence-data | assigned-class |
| --- | --- |
| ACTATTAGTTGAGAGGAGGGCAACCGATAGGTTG | f |
| CCTACTGGGGCAAAAAGGTCATTGATGCCGATAA | t |
| ACTTACGGGTCAACGAGGCTATAGCACGCGTATA | t |

Exam item: decide whether the reported PBM binding z-score for TCATATAGGTATACAGGTGAAAGTCCGTAAGTTA is at least 3.
f

// next record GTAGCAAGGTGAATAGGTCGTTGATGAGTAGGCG
f

// next record GCTTGTAGATCAAGGTTAAGAAAGACTAAGCTAA
f

// next record CCAGACAGGTCAAAGGTAACTCAGTCTGGTACGC
t

====

# System: PPARg:RXRa (NR concentration 180 nM, RXRa partner concentration 90 nM)
# procedure-text: PBM binding z-score (relative to random genomic background probes); higher = stronger binding; sequences stand for … in GC…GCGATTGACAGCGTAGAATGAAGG
Decision: PBM binding z-score compared against 2; not below it gives Y, below it gives N.

Worked cases, answers included:
| sequence-data | assigned-class |
| --- | --- |
| TCATATAGGTAATACAGGTGAGAGTCGGCATCTA | N |
| ACTATTAGTTGACCTAGGGCAACCGATACGACGC | N |
| ACTCGGAGGACAAAGGTCAGATCTACGCCAGTGA | Y |

Could you now consider this next sequence?
Exam item: decide whether the reported PBM binding z-score for ATCTCTAGGTAAGCCTCAGTTCAGTGAAGAACGC is at least 2.
N

====

# System: PXR homodimer (NR concentration 270 nM)
# procedure-text: PBM binding z-score (relative to random genomic background probes); higher = stronger binding; sequences stand for … in GC…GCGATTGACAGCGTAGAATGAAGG
Quick list: PBM binding z-score per entry.
API note: the answer field is a bare number with no unit suffix.

Past entries and their recorded results:
| sequence-data | target-of-assay | PBM binding z-score |
| --- | --- | --- |
| TCGAGTAGGTGACCAATGGGGCATTCAGCTTTCT | PXR homodimer (NR concentration 270 nM) | -1.05 |
| ACTCGGAGTACAAAGGTCAGAGCTACGCCAGTGA | PXR homodimer (NR concentration 270 nM) | 0.393 |
| ATCTCTATGTAAAGTTCAGTGAAAGATCGATAGA | PXR homodimer (NR concentration 270 nM) | 2.03 |
| ACACACAGGTGATGAAGGTAACTCAGGCTATCAT | PXR homodimer (NR concentration 270 nM) | 0.251 |
| CCTACTGGGGCATCAGGTCATTGATATCAACGTT | PXR homodimer (NR concentration 270 nM) | 0.7 |
| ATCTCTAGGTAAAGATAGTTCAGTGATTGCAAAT | PXR homodimer (NR concentration 270 nM) | 0.822 |

Can you share its PBM binding z-score? I mean this sequence: CCTACTGGGCCAAGGTCATTGGTCAGTCAAAGCA
1.12

====

# Test system: PPARg:RXRa IVT, anti-PPARg (NR concentration 270 nM, RXRa partner concentration 90 nM)
# procedure-text: PBM binding z-score (relative to random genomic background probes); higher = stronger binding; sequences stand for … in GC…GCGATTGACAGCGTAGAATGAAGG
Decision: PBM binding z-score compared against 1; not below it gives Fulfilled, below it gives Not fulfilled.

Worked cases, answers included:
| sequence-data | assigned-class |
| --- | --- |
| CGAACTATGTCATTGACAGGACAGTGAATAGTAA | Fulfilled |
| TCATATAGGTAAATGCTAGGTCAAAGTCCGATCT | Fulfilled |
| ACTATTAGTTGAGACGACGGCAACCGATAGGTTG | Not fulfilled |
| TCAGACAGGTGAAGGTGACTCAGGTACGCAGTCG | Fulfilled |
| TCTAGTTGGTCAAAGGTCACATACTCGAAATGCG | Fulfilled |
| AATACAGGGTCATCGTAGGCCACAGTACGCACAG | Fulfilled |
| TATACAGGGTCAAAAGCCAGAGTACGAATGTCGA | Fulfilled |
| CTATCAAGGTGAACAAGGTCGTTGATTACTATTC | Fulfilled |
| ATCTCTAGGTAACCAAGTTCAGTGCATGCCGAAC | Fulfilled |
| TCTTGTAGTTCAAAGGTTAAGAAAGCCGAAGCCT | Fulfilled |

Exam item: decide whether the reported PBM binding z-score for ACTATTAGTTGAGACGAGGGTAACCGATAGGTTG is at least 1.
Not fulfilled

// next record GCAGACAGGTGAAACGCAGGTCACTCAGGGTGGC
Fulfilled

// next record GATACAGGGTCAAGGCTAGAGTACGCGTATTGAT
Fulfilled

// next record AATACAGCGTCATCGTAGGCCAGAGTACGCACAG
Not fulfilled

// next record GCAGACAGGTGAAACGCATGTAACTCAGGGTGGC
Not fulfilled

// next record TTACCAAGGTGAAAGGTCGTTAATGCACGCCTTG
Fulfilled

// next record TCTCGGAGGACACGAAAGGTCAGAGCACGACATC
Fulfilled

// next record AGTCAAAGTTCAGGACGAGGTAACGAAAAGCACG
Fulfilled

// next record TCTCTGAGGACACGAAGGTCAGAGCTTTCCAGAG
Fulfilled

// next record ATCGAAAAGTCGACGAGGTGAGTATACACCGTTT
Not fulfilled

// next record CCTATTAGGTGACCATAAGGGCAACCGAAGCTCG
Fulfilled

// next record GCTCACGGGTCAAAGGTTATAGCATGAATAGAAT
Fulfilled

// next record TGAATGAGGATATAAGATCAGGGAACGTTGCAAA
Not fulfilled

// next record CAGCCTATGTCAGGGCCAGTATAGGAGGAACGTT
Not fulfilled

// next record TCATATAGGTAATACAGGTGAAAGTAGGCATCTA
Fulfilled

// next record CCTCGGAGGACAGAAAGTCAGAGCTGTCCGCTTT
Not fulfilled

// next record CCGAGTAGGTTCTGGGGCATTCAGGCAACGGTGA
Fulfilled

====

# Test system: RARb:RXRa (NR concentration 270 nM, RXRa partner concentration 90 nM)
# procedure-text: PBM binding z-score (relative to random genomic background probes); higher = stronger binding; sequences stand for … in GC…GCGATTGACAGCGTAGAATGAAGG
property-measured: PBM binding z-score
API note: the answer field is a bare number with no unit suffix.

| sequence-data | PBM binding z-score |
| --- | --- |
| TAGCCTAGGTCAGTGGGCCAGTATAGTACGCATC | 3.01 |
| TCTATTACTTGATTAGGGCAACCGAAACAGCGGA | 0.983 |
| GCGACTGGGGCATCAGCAGGTTACCTTAACTTAA | 0.828 |

Can you share its PBM binding z-score? I mean this sequence: ATCGAAAGGTCGACGAGGTGAGGATACACCGTTT
3.98

// next record CCGACTGGGGCATAAGGTTACTATAAGCCAGCCC
1.45

// next record CGAACTAGGTCATCCAGGACAGTGGATACATTGA
4.03

// next record CGAGCTAGGTCATTGACAGGACAGTGAATAGTAA
3.66
